Listed next: entries and their corresponding activity, negative = cell killing.
- protocol.notes: Drug repurposing screens with cells derived from glioblastoma tumor samples (AID 1345199); further: on the % scale 0 is the no-effect control and ±100 the full control effect; nearly all actives have a fitted effect of over 40% in size
- experimental.setup: GBM patient neurospheres viability, ATP luminescence, 48 h; at 46.1 µM (top of the series); tumour line C
Records with an inconclusive call do not appear.
The response must be a number in % with no trailing unit.

Past entries and their recorded results:
{"molecule": "CCC(C)(C)c1ccc(O)cc1", "activity, negative = cell killing, %": -3.53}
{"molecule": "O=C(O)/C=C\\C(=O)O", "activity, negative = cell killing, %": 3.02}
{"molecule": "O=C1c2ccccc2C(=O)C1C(=O)C(c1ccccc1)c1ccccc1", "activity, negative = cell killing, %": -30.6}

(Q) Query (molecule): `NNc1ccccc1` ; field requested: activity, negative = cell killing
(A) 11.9

(Q) For CC1(C)C(C=C(Cl)Cl)C1C(=O)OC(C#N)c1cccc(Oc2ccccc2)c1 (stereo not given) then?
(A) -35.5

* * *

- System: HEK293
- protocol.notes: Cytotoxic Profiling of Annotated Libraries Using Quantitative High-Throughput Screening (AID 1296008); further: on the % scale 0 is the no-effect control and ±100 the full control effect; nearly all actives have a fitted effect of over 60% in size
- experimental.setup: Five cell lines viability, CellTiter-Glo ATP luminescence, 48-72 h; hits give low values
Results filed as inconclusive are left out.
Listed next: entries and their corresponding max response.
The response must be a number in % with no trailing unit.

{"compound": "COc1cc(CCN)cc(OC)c1OC", "measured.parameter": "max response", "obs.value": -9.62}
{"compound": "C[C@H]1[C@@H]2Cc3ccc(O)cc3[C@@]1(C)CCN2C", "measured.parameter": "max response", "obs.value": -19.5}
{"compound": "NNc1ccccc1", "measured.parameter": "max response", "obs.value": 3.08}
{"compound": "C=CCC1([C@H](C)CCC)C(=O)NC(=O)NC1=O", "measured.parameter": "max response", "obs.value": 1.82}
{"compound": "CN1CC[C@]23c4c5ccc(O)c4O[C@H]2[C@@H](O)CC[C@H]3[C@H]1C5", "measured.parameter": "max response", "obs.value": -12.9}

(Q) Query (compound): `Nc1ccc([As](=O)(O)O)cc1` ; field requested: max response
(A) -6.15

(Q) For `COc1ccc2c3c1O[C@H]1[C@H](O)CC[C@H]4[C@@H](C2)N(C)CC[C@@]341` then?
(A) -4.59

(Q) For `CCc1cc2c(s1)-n1c(C)nnc1CN=C2c1ccccc1Cl` then?
(A) -15.5

(Q) For `NC(=O)c1cc([N+](=O)[O-])cc([N+](=O)[O-])c1` then?
(A) -2.7

(Q) For `[N-]=[N+]=CC(=O)OC[C@H](N)C(=O)O` then?
(A) 4.4

(Q) For C[N+]1(CCF)[C@@H]2CC[C@H]1CC(OC(=O)C(O)(c1ccccc1)c1ccccc1)C2 (stereo partly drawn) then?
(A) -5.81

(Q) For `COc1ccc2c(c1OC)C(=O)O[C@H]2[C@@H]1c2cc3c(cc2CCN1C)OCO3` then?
(A) -2.03

(Q) For `O=C(O)/C=C\C(=O)O` then?
(A) -3.36

(Q) For `CNC(C)(C)Cc1ccccc1` then?
(A) -3.64

(Q) For CC(C)(C)NCC(O)c1ccccc1Cl (stereo not drawn) then?
(A) -2.46

(Q) For `Nc1nc(N)nc(NC2CC2)n1` then?
(A) -46.2

(Q) For C=CCC1(C(C)CC)C(=O)NC(=O)NC1=O (stereo not drawn) then?
(A) 4.61

(Q) For `COP(=S)(OC)Oc1ccc(SC)c(C)c1` then?
(A) -0.0428

* * *

- Test system: KB-3-1
- protocol.notes: Cytotoxic Profiling of Annotated Libraries Using Quantitative High-Throughput Screening (AID 1296008); further: on the % scale 0 is the no-effect control and ±100 the full control effect; nearly all actives have a fitted effect of over 60% in size
- experimental.setup: Five cell lines viability, CellTiter-Glo ATP luminescence, 48-72 h; hits give low values
Records with an inconclusive call do not appear.
Listed next: entries and their corresponding max response.
The response must be a number in % with no trailing unit.

Past entries and their recorded results:
{"compound": "CC(C)(C)NCC(O)c1cc(Cl)c(N)c(C(F)(F)F)c1 (centres undefined)", "max response, %": 5.51}
{"compound": "CC(C)[C@H]1C(=O)N2CCC[C@H]2[C@]2(O)O[C@](NC(=O)[C@@H]3C[C@@H]4c5cccc6[nH]cc(c56)C[C@H]4N(C)C3)(C(C)C)C(=O)N12", "max response, %": 22.9}
{"compound": "CCN(CC)CCc1c[nH]c2ccccc12", "max response, %": -19.3}
{"compound": "CN1CC[C@]23c4c5ccc(O)c4O[C@H]2[C@@H](O)C=C[C@H]3[C@H]1C5", "max response, %": -4.72}
{"compound": "COc1cc(CCN)cc(OC)c1OC", "max response, %": 2.38}

(Q) Query (compound): `Clc1cccc(SC2CCNCC2)n1` ; field requested: max response
(A) -11.2

(Q) For `C=C(C)[C@H]1CN[C@H](C(=O)O)[C@H]1CC(=O)O` then?
(A) 4.34

(Q) For `O=C(N/N=C/c1ccc([N+](=O)[O-])o1)c1cc([N+](=O)[O-])cc([N+](=O)[O-])c1O` then?
(A) 15.7

(Q) For `CCN[C@@H](C)Cc1cccc(C(F)(F)F)c1` then?
(A) -9.47

(Q) For `CNCC(=O)c1ccc(O)c(O)c1` then?
(A) -7.67

(Q) For `CCCCCN(C)CCC(O)(P(=O)(O)O)P(=O)(O)O` then?
(A) 1.98

(Q) For `CN1CC[C@]23c4c5ccc(O)c4O[C@H]2[C@@H](O)CC[C@H]3[C@H]1C5` then?
(A) -2.83

* * *

- protocol.notes: Primary qHTS for inhibitors of MERS-S pseudo-typed particle cell entry (AID 1479149); further: nearly all actives have a fitted effect of over 60% in size
- experimental.setup: MERS-S pseudotyped particle entry, luciferase; series mostly up to 57.1 µM
Results filed as inconclusive are left out. Activity calls are given as the source filed them. Calls come from the whole dose curve.
measured.parameter: outcome

Past entries and their recorded results:
{"molecule": "CC(CSC(=O)c1ccccc1)C(=O)N1C[C@@H](Sc2ccccc2)C[C@H]1C(=O)O (stereo partly specified)", "obs.value": "inactive"}
{"molecule": "CC(=O)NCCCS(=O)(=O)O", "obs.value": "inactive"}
{"molecule": "O=C(O)COc1nn(Cc2ccccc2)c2ccccc12", "obs.value": "inactive"}
{"molecule": "CCCCOCCOC(=O)c1cccnc1", "obs.value": "inactive"}
{"molecule": "CN1CCN(CCC=C2c3ccccc3Sc3ccc(S(=O)(=O)N(C)C)cc32)CC1", "obs.value": "inactive"}

Lab note: next molecule to report on.
(Q) Query (molecule): CCCCCCCN(CC)CCCC(O)c1ccc(NS(C)(=O)=O)cc1 (stereo unspecified) ; field requested: outcome
(A) inactive

* * *

Listed next: entries and their corresponding efficacy.
- experimental.setup: Ebola virus entry assay, green fluorescence channel
Results with a measured potency or affinity are listed apart.
The response must be a number in % with no trailing unit.

(Q) Query (compound): `CN(C)CCN1CCN(c2cccc(Cl)c2)C1=O` ; field requested: efficacy
(A) -56.2

(Q) For `CC(=O)OCC(=O)[C@H]1CC[C@H]2[C@@H]3CCC4=CC(=O)CC[C@]4(C)[C@H]3CC[C@]12C` then?
(A) -27

(Q) For `CC(=O)Oc1cccc2c1C(=O)c1c(OC(C)=O)cc(C(=O)O)cc1C2=O` then?
(A) -17.1

(Q) For `COP(=S)(OC)Oc1cc(Cl)c(Cl)cc1Cl` then?
(A) -14

(Q) For `OC[C@H]1O[C@@H](Oc2ccc(O)cc2)[C@H](O)[C@@H](O)[C@@H]1O` then?
(A) -11.6

(Q) For `COc1ccc2c(c1OC)C(=O)O[C@H]2[C@@H]1c2cc3c(cc2CCN1C)OCO3` then?
(A) 26.4

(Q) For `CN=C(NC#N)NCCSCc1csc(N=C(N)N)n1` then?
(A) -13.8

(Q) For O=C(O)C(S)C(S)C(=O)O (configuration not stated) then?
(A) -24.2

(Q) For `CCn1cc(C(=O)O)c(=O)c2cnc(N3CCNCC3)nc21` then?
(A) -36.7

(Q) For `COc1ccc(-c2cc(=O)c3c(O)cc(O[C@@H]4O[C@H](CO[C@@H]5O[C@@H](C)[C@H](O)[C@@H](O)[C@H]5O)[C@@H](O)[C@H](O)[C@H]4O)cc3o2)cc1O` then?
(A) -6.57

* * *

- experimental.setup: Ebola virus entry assay, green fluorescence channel
Results with a measured potency or affinity are listed apart.
Threshold check on efficacy: at or above -20% gives YES, strictly below gives NO.

Field: example entries. Status: answers known.
{"molecule": "COc1cc(OC)c(C(=O)CCCN2CCCC2)c(OC)c1", "class.assignment": "NO"}
{"molecule": "CCC(C)(C)c1ccc(O)cc1", "class.assignment": "YES"}
{"molecule": "CO/N=C(/C(=O)N[C@@H]1C(=O)N2C(C(=O)OCOC(=O)C(C)(C)C)=C(C)CS[C@H]12)c1csc(N)n1", "class.assignment": "YES"}
{"molecule": "COc1c2occc2cc2ccc(=O)oc12", "class.assignment": "YES"}
{"molecule": "COc1ccc2c(c1)CCCC2=O", "class.assignment": "YES"}

(Q) Evaluate `O=C1OC(c2ccc(O)c(S(=O)(=O)O)c2)(c2ccc(O)c(S(=O)(=O)O)c2)c2c(Br)c(Br)c(Br)c(Br)c21` : efficacy at minimum -20%?
(A) YES

(Q) For Cc1cc(C(C#N)c2ccc(Cl)cc2)c(Cl)cc1NC(=O)c1cc(I)cc(I)c1O (stereo not drawn) then?
(A) NO

(Q) For `NNc1ccccc1` then?
(A) YES

(Q) For CC(N=C(NC#N)Nc1ccncc1)C(C)(C)C (stereo not drawn) then?
(A) NO

(Q) For `O=c1cc[nH]c(=S)[nH]1` then?
(A) YES

(Q) For `CCCCCCCCCCCCSCCOCCO` then?
(A) NO

(Q) For `Cc1cc2nc3c(=O)[nH]c(=O)nc-3n(C[C@H](O)[C@H](O)[C@H](O)CO)c2cc1C` then?
(A) YES

(Q) For `Nc1ccc(S(=O)(=O)Nc2ccccn2)cc1` then?
(A) YES

(Q) For `C#C[C@]1(O)CC[C@H]2[C@@H]3CCC4=CC(=O)CC[C@]4(C)[C@H]3CC[C@@]21C` then?
(A) YES

(Q) For `COc1nccnc1NS(=O)(=O)c1ccc(N)cc1` then?
(A) YES

(Q) For O=P(O)(O)OCC(O)CO (stereo not drawn) then?
(A) YES

(Q) For `CC(C)(C)CC(C)(C)c1ccc(OCCOCC[N+](C)(C)Cc2ccccc2)cc1` then?
(A) NO
